system: LU99A; assay: relative viability (nuclei count vs DMSO), 5 days (fraction); higher = more cells survive; conditions: first compound 0.2 µM
Label satisfied when relative viability < 0.4; otherwise not satisfied.

Reference set, count: 3
Cc1csc(=NC2CCCCC2)n1/N=C/c1ccc(O)c(O)c1O [MIM1] + CC1(C)CCC(c2ccc(Cl)cc2)=C(CN2CCN(c3ccc(C(=O)NS(=O)(=O)c4ccc(N[C@H](CCN5CCOCC5)CSc5ccccc5)c(S(=O)(=O)C(F)(F)F)c4)cc3)CC2)C1 [Navitoclax] (partner 0.5 µM) ... not satisfied
CCNC(=O)c1noc(-c2cc(C(C)C)c(O)cc2O)c1-c1ccc(CN2CCOCC2)cc1 [Luminespib] + C[C@]1(O)C[C@@H](c2nc(-c3ccc4ccc(-c5ccccc5)nc4c3)c3c(N)nccn32)C1 [Linsitinib] (partner 1 µM) ... satisfied
CCNC(=O)c1noc(-c2cc(C(C)C)c(O)cc2O)c1-c1ccc(CN2CCOCC2)cc1 [Luminespib] + O=C(CCCCCCC(=O)Nc1ccccc1)NO [Vorinostat] (partner 1 µM) ... satisfied

Now look at this entry.
Query block: Lab note: relative viability threshold 0.4. Does this molecule come in strictly under it? CCNC(=O)c1noc(-c2cc(C(C)C)c(O)cc2O)c1-c1ccc(CN2CCOCC2)cc1 [Luminespib] + Cc1nc(NC(=O)N2CCC[C@H]2C(N)=O)sc1-c1ccnc(C(C)(C)C(F)(F)F)c1 [Alpelisib] (partner 2 µM)
Result block: satisfied

====

system: LK-2; test: relative viability (nuclei count vs DMSO), 5 days (fraction); higher = more cells survive; conditions: first compound 0.02 µM
Experimental Endpoint: relative viability

CCNC(=O)c1noc(-c2cc(C(C)C)c(O)cc2O)c1-c1ccc(CN2CCOCC2)cc1 [Luminespib] + N=C(N)NC(=N)NCCc1ccccc1 [Phenformin] (partner 250 µM) ... 0.252
CN1CCN(CCOc2cc(OC3CCOCC3)c3c(Nc4c(Cl)ccc5c4OCO5)ncnc3c2)CC1 [Saracatinib] + Cc1nc(Nc2ncc(C(=O)Nc3c(C)cccc3Cl)s2)cc(N2CCN(CCO)CC2)n1 [Dasatinib] (partner 0.075 µM) ... 0.275
CN1CCN(CCOc2cc(OC3CCOCC3)c3c(Nc4c(Cl)ccc5c4OCO5)ncnc3c2)CC1 [Saracatinib] + O=C(CCCCCCC(=O)Nc1ccccc1)NO [Vorinostat] (partner 1 µM) ... 0.353
CCNC(=O)c1noc(-c2cc(C(C)C)c(O)cc2O)c1-c1ccc(CN2CCOCC2)cc1 [Luminespib] + NC(=O)Nc1cc(-c2cccc(F)c2)sc1C(=O)N[C@H]1CCCNC1 [AZD7762] (partner 0.2 µM) ... 0.278
CN1CCN(CCOc2cc(OC3CCOCC3)c3c(Nc4c(Cl)ccc5c4OCO5)ncnc3c2)CC1 [Saracatinib] + N=C(N)NC(=N)NCCc1ccccc1 [Phenformin] (partner 250 µM) ... 0.545
CCNC(=O)c1noc(-c2cc(C(C)C)c(O)cc2O)c1-c1ccc(CN2CCOCC2)cc1 [Luminespib] + CC1(C)CCC(c2ccc(Cl)cc2)=C(CN2CCN(c3ccc(C(=O)NS(=O)(=O)c4ccc(N[C@H](CCN5CCOCC5)CSc5ccccc5)c(S(=O)(=O)C(F)(F)F)c4)cc3)CC2)C1 [Navitoclax] (partner 0.5 µM) ... 0.571
CCNC(=O)c1noc(-c2cc(C(C)C)c(O)cc2O)c1-c1ccc(CN2CCOCC2)cc1 [Luminespib] + O=C(CCCCCCC(=O)Nc1ccccc1)NO [Vorinostat] (partner 1 µM) ... 0.201
CN1CCN(CCOc2cc(OC3CCOCC3)c3c(Nc4c(Cl)ccc5c4OCO5)ncnc3c2)CC1 [Saracatinib] + CS(=O)(=O)CCNCc1ccc(-c2ccc3ncnc(Nc4ccc(OCc5cccc(F)c5)c(Cl)c4)c3c2)o1 [Lapatinib] (partner 2 µM) ... 0.95

Query block: I'd like to know its relative viability. The compound in question is CCNC(=O)c1noc(-c2cc(C(C)C)c(O)cc2O)c1-c1ccc(CN2CCOCC2)cc1 [Luminespib] + Cc1cc(Nc2cc(N3CCN(C)CC3)nc(Sc3ccc(NC(=O)C4CC4)cc3)n2)n[nH]1 [Tozasertib] (partner 0.1 µM)
Result block: 0.154

Query block: Quick one: relative viability of CN1CCN(CCOc2cc(OC3CCOCC3)c3c(Nc4c(Cl)ccc5c4OCO5)ncnc3c2)CC1 [Saracatinib] + CC(=O)Nc1cccc(-n2c(=O)n(C3CC3)c(=O)c3c(Nc4ccc(I)cc4F)n(C)c(=O)c(C)c32)c1 [Trametinib] (partner 0.02 µM) ?
Result block: 0.725

Query block: Form field: reported relative viability of CCNC(=O)c1noc(-c2cc(C(C)C)c(O)cc2O)c1-c1ccc(CN2CCOCC2)cc1 [Luminespib] + CC(=O)c1c(C)c2cnc(Nc3ccc(N4CCNCC4)cn3)nc2n(C2CCCC2)c1=O [Palbociclib] (partner 0.5 µM)
Result block: 0.351

Query block: Fill blank: measured relative viability of the compound CCNC(=O)c1noc(-c2cc(C(C)C)c(O)cc2O)c1-c1ccc(CN2CCOCC2)cc1 [Luminespib] + O=C(c1cc(Cc2n[nH]c(=O)c3ccccc23)ccc1F)N1CCN(C(=O)C2CC2)CC1 [Olaparib] (partner 8 µM) is ____.
Result block: 0.519

Query block: What value of relative viability has been recorded for this entry: CN1CCN(CCOc2cc(OC3CCOCC3)c3c(Nc4c(Cl)ccc5c4OCO5)ncnc3c2)CC1 [Saracatinib] + NC(=O)Nc1cc(-c2cccc(F)c2)sc1C(=O)N[C@H]1CCCNC1 [AZD7762] (partner 0.2 µM)
Result block: 0.391
